Test system: DU-145 prostate
Assay: NCI tumour cell line growth inhibition, 48 h; in the data active = GI50 below about 0.43 µM; inactive = the rest
# output must be one of class 1 = active, class 0 = inactive

>>> category_label("CC(=O)O[C@H](C[C@H](C(C)C)N(C)C(=O)[C@@H](NC(=O)[C@H]1CCCCN1C)C(C)C)c1nc(C(=O)N[C@@H](Cc2ccccc2)C[C@H](C)C(=O)O)c(C(C)C)s1")
"class 1"

Request: For `N#Cc1ccc(N2Cc3ccccc3OC3=C2C(=O)c2c(O)ccc(O)c2C3=O)cc1` , which call appears in the assay record?
Result: class 1

Request: Also `Oc1c(CN2CCCC2)cc(COCc2ccc(Br)cc2)c2cccnc12` , if possible.
Result: class 0

Request: Also `C/C(=N\N=C(\[Se])N1CCN(c2ccccn2)CC1)c1ccccn1` , if possible.
Result: class 0

Request: Same lookup for `O=[N+]([O-])c1ccc2c(N3CCC(CCCC4CCN(c5ncnc6cc([N+](=O)[O-])ccc56)CC4)CC3)ncnc2c1` , please.
Result: class 0

Request: Follow-up entry: `COC(=O)[C@]12CC[C@@H](C)[C@H](C)[C@@H]1C1=CC[C@@H]3[C@@]4(C)C(C=O)=C[C@@](C)(COC(=O)c5ccco5)[C@@H]4C(=O)C[C@@]3(C)[C@]1(C)CC2`
Result: class 0
